Target or test system: T1, human glucagon receptor (human, UniProt P47871 26-477)
T1 construct: whole, on cells; also called hGCGR; hGcgR
T1 sequence (P47871 26-477): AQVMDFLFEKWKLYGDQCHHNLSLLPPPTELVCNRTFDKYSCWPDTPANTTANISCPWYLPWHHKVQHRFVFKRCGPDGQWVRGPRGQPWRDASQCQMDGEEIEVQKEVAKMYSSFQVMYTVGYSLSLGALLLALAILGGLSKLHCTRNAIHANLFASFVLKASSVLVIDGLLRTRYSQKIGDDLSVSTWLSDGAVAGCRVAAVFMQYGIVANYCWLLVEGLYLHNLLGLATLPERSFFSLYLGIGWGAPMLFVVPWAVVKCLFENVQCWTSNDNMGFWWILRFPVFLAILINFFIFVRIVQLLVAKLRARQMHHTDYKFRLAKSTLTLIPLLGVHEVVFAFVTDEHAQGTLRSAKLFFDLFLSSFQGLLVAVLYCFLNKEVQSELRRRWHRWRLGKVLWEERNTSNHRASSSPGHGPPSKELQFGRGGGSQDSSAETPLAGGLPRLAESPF
Method: SPA competition vs [125I]-Gcg, hGcgR membranes
Label class 1 when Ki < 100 nM; otherwise class 0.

Completed entries (count: 2):
Determine if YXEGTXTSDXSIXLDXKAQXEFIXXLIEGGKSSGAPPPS (Aib2, αMeF(2F)6, 1Nal10, αMeL13, Orn16, K17(Z1), Aib20, D-Glu24, αMeY25, K31(Z1), C-term NH2; Z1=AEEA2-(γ-Glu)-CO-(CH2)12-CO2H) shows Ki strictly lower than 100 nM.
class 0

Determine if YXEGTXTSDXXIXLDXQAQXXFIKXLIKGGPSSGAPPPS (Aib2, αMeF(2F)6, 4Pal10, Aib11, αMeL13, Orn16, Aib20, Orn21, K24(Z1), αMeY25, K28(Z1), C-term NH2; Z1=AEEA-(γ-Glu)3-CO-(CH2)12-CO2H) shows Ki strictly lower than 100 nM.
class 0

New cases:
Determine if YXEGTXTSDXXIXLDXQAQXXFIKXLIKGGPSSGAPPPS (Aib2, αMeF(2F)6, 4Pal10, Aib11, αMeL13, Orn16, Aib20, 4Pal21, K24(Z1), αMeY25, K28(Z1), C-term NH2; Z1=AEEA2-(γ-Glu)-(10-(4-carboxyphenoxy)decanoyl)) shows Ki strictly lower than 100 nM.
class 1

Determine if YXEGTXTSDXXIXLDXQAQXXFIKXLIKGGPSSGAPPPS (Aib2, αMeF(2F)6, 4Pal10, Aib11, αMeL13, Orn16, Aib20, Orn21, K24(Z1), αMeY25, K28(Z1), C-term NH2; Z1=AEEA-(γ-Glu)3-(10-(4-carboxyphenoxy)decanoyl)) shows Ki strictly lower than 100 nM.
class 1

Determine if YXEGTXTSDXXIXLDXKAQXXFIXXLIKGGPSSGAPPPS (Aib2, αMeF(2F)6, 4Pal10, Aib11, αMeL13, Orn16, K17(Z1), Aib20, Orn21, D-Glu24, αMeY25, K28(Z1), C-term NH2; Z1=AEEA3-(γ-Glu)-CO-(CH2)10-CH3) shows Ki strictly lower than 100 nM.
class 1

Determine if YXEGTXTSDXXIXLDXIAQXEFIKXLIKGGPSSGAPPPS (Aib2, αMeF(2F)6, 4Pal10, Aib11, αMeL13, Orn16, Aib20, K24(Z1), αMeY25, K28(Z1), C-term NH2; Z1=AEEA2-(γ-Glu)-CO-(CH2)12-CO2H) shows Ki strictly lower than 100 nM.
class 0
